test system: transgenic Arabidopsis AMATU_PPO2_G211A_F420M; test: Germination assay, transgenic ARBTH germinating in medium containing selection agent (48-well plates); format: in vivo, Arabidopsis thaliana; settings: Arabidopsis thaliana, Event R
QUANTITY: IC50 (µM)
Report as a plain number; the unit µM is understood.

Problem: Form: Entry = CC(C)N(C)S(=O)(=O)NC(=O)c1cc(-n2c(=O)cc(C(F)(F)F)n(C)c2=O)c(F)cc1Cl | System = transgenic Arabidopsis AMATU_PPO2_G211A_F420M | IC50 = ____
Result: 7.5

* * *

system: empty vector-transformed leaf discs; assay: PSII yield inhibition in tobacco leaf discs (imaging PAM chlorophyll fluorescence); type: cell-based; details: Nicotiana benthamiana; empty vector-transformed leaf discs, treated for 48 h; read-out: IC50 of PSII yield inhibition
QUANTITY: pIC50
The value called pIC50 is obtained by taking minus log10 of the concentration in mol/L.

Problem: I have this compound here, C#CCN1C(=O)C(F)(F)Oc2cc(F)c(-n3c(=O)n(C)c(=S)n(C)c3=O)cc21 , and I need its recorded pIC50.
Result: 7.96

* * *

test system: non-transgenic (MC-24) Arabidopsis; assay: Germination assay, ARBTH germinating in medium containing selection agent (48-well plates); assay type: in vivo, Arabidopsis thaliana; conditions: Arabidopsis thaliana
QUANTITY: IC50 (nM)
Report as a plain number; the unit nM is understood.

Problem: Form: Entry = CC(C)N(C)S(=O)(=O)NC(=O)c1cc(-n2c(=O)cc(C(F)(F)F)n(C)c2=O)c(F)cc1Cl [Saflufenacil] | System = non-transgenic (MC-24) Arabidopsis | IC50 = ____
Result: 25

* * *

tested on: transgenic Arabidopsis AMATU_PPO2_G211A_F420M; experiment: Germination assay, transgenic ARBTH germinating in medium containing selection agent (48-well plates); type: in vivo, Arabidopsis thaliana; conditions: Arabidopsis thaliana, Event M
QUANTITY: pIC50
The value called pIC50 is obtained by taking minus log10 of the concentration in mol/L.

Problem: I have this molecule here, CC(C)N(C)S(=O)(=O)NC(=O)c1cc(-n2c(=O)cc(C(F)(F)F)n(C)c2=O)c(F)cc1Cl , and I need its recorded pIC50.
Result: 4.60
